Reference source for all entries: paper PMC7531286

- assayedTarget: SARS-CoV spike protein (S1 subunit, His tag) (Severe acute respiratory syndrome coronavirus)
- measurementDescription: biochemical
pKd: −log10 of the molar value.

compound: CC(C)=CCC[C@](C)(O[C@@H]1O[C@H](CO[C@@H]2OC[C@@H](O)[C@H](O)[C@H]2O)[C@@H](O)[C@H](O)[C@H]1O)[C@H]1CC[C@]2(C)[C@@H]1[C@H](O)C[C@@H]1[C@@]3(C)CC[C@H](O[C@@H]4O[C@H](CO)[C@@H](O)[C@H](O)[C@H]4O[C@@H]4O[C@H](CO)[C@@H](O)[C@H](O)[C@H]4O)C(C)(C)[C@@H]3CC[C@]12C [ZZY-13, Ginsenoside Rb3]
pKd: 5.70

compound: COc1ccc2cc3[n+](cc2c1OC)CCc1cc2c(cc1-3)OCO2 [ZZY-54, Berberine Chloride]
pKd: 4.62

compound: CC1(C)[C@@H](O[C@H]2O[C@H](C(=O)O)[C@@H](O)[C@H](O)[C@H]2O[C@@H]2O[C@H](C(=O)O)[C@@H](O)[C@H](O)[C@H]2O)CC[C@]2(C)[C@H]3C(=O)C=C4[C@@H]5C[C@@](C)(C(=O)O)CC[C@]5(C)CC[C@@]4(C)[C@]3(C)CC[C@@H]12
pKd: 4.18

compound: CC(C)=CCC[C@](C)(O[C@@H]1O[C@H](CO[C@@H]2O[C@H](CO)[C@@H](O)[C@H](O)[C@H]2O)[C@@H](O)[C@H](O)[C@H]1O)[C@H]1CC[C@]2(C)[C@@H]1[C@H](O)C[C@@H]1[C@@]3(C)CC[C@H](O[C@@H]4O[C@H](CO)[C@@H](O)[C@H](O)[C@H]4O[C@@H]4O[C@H](CO)[C@@H](O)[C@H](O)[C@H]4O)C(C)(C)[C@@H]3CC[C@]12C [ZZY-9, Ginsenoside Rb1]
pKd: 4.53
